Catalogue of IC50 readings, one per entry.
# Assay target: human NaV1.8 (hNaV1.8) ion channel (Homo sapiens)
# Construct: expressed in transfected cells
# Assay summary: Inhibition of Human NaV1.8 stably expressed in SH-SY-5Y cells (membrane potential dye fluorescence assay)
# Type: cell-based
# Assay setup: SH-SY-5Y cells stably expressing hNaV1.8; FLIPR membrane potential dye; 10 μM pyrethroid, 250 nM TTX; test range 100 μM-0.05 μM; read-out: hNav1.8 IC50

| Compound | Measurement unit | IC50 |
| --- | --- | --- |
| Cc1ccccc1C(C)NC1CN(C(=O)Nc2cccc(C(F)(F)F)c2)C1 (centres unmarked) [Example 75] | nM | 2260 |
| O=C(Nc1ccc(Oc2ccc(F)cc2)c(F)c1)N1CC(NC2CCc3cc(Br)ccc32)C1 (centres unmarked) [Example 16] | nM | 1720 |
| Cc1ccccc1C(C)NC1CN(C(=O)Nc2cccc(Oc3ccccc3)c2)C1 (centres unmarked) [Example 106] | nM | 560 |
| CC(NC1CN(C(=O)Nc2ccc(Oc3ccccc3)cc2)C1)c1ccc(N2CCCCC2)cc1 (centres unmarked) [Example 120] | nM | 590 |
| CC(NC1CN(C(=O)Nc2ccc(Oc3ccccc3)cc2)C1)c1ccc(Oc2ccccc2)cc1 (centres unmarked) [Example 77] | nM | 1090 |
| Cc1cc(F)ccc1C(C)NC1CN(C(=O)Nc2ccc(Oc3ccc(F)cc3)cc2)C1 (centres unmarked) [Example 119] | nM | 460 |
| COc1ccc2c(c1)CCC2NC1CN(C(=O)Nc2ccc(Oc3ccc(F)cc3)cc2)C1 (centres unmarked) [Example 21] | nM | 310 |
| CC(NC1CN(C(=O)Nc2ccc(Oc3ccccc3)cc2)C1)c1c(F)cccc1F (centres unmarked) [Example 130] | nM | 750 |
| O=C(Nc1ccc(Oc2ccc(F)cc2)cc1)N1CC(NC2CCc3cc(Cl)ccc32)C1 (centres unmarked) [Example 18] | nM | 620 |
| Cc1ccccc1C(C)NC1CN(C(=O)Nc2ccc(Oc3ccccc3)cc2)C1 (centres unmarked) [Example 61] | nM | 750 |
| Cc1ccccc1C(C)N(C)C1CN(C(=O)Nc2ccc(C(F)(F)F)cc2)C1 (centres unmarked) [Example 110] | nM | 2240 |
| Cc1cc(F)ccc1C(C)NC1CN(C(=O)Nc2ccc(Oc3ccccc3)cc2)C1 (centres unmarked) [Example 111] | nM | 630 |
| Cc1ccccc1C(C)N(C)C1CN(C(=O)Nc2ccc(Oc3ccccc3)cc2)C1 (centres unmarked) [Example 62] | nM | 720 |
| CN(C(=O)N1CC(NC2CCc3cc(F)ccc32)C1)c1ccc(Oc2ccc(F)cc2)cc1 (centres unmarked) [Example 20] | nM | 700 |
| Cc1ccc(C(C)N(C)C2CN(C(=O)Nc3ccc(Oc4ccccc4)cc3)C2)c(C)c1 (centres unmarked) [Example 105] | nM | 420 |
| CCCCOc1cccc(NC(=O)N2CC(NC(C)c3ccccc3C)C2)c1 (centres unmarked) [Example 68] | nM | 830 |
| CC(NC1CN(C(=O)NC(c2ccc(F)cc2)c2ccc(F)cc2)C1)c1ccc(F)cc1 (centres unmarked) [Example 2] | nM | 2620 |

---

Reported values of log10 of IC50 for individual entries
# Assay target: human NaV1.8 (hNaV1.8) ion channel (Homo sapiens, UniProt Q9Y5Y9)
# Construct: expressed in transfected cells
# Sequence (Q9Y5Y9 whole entry): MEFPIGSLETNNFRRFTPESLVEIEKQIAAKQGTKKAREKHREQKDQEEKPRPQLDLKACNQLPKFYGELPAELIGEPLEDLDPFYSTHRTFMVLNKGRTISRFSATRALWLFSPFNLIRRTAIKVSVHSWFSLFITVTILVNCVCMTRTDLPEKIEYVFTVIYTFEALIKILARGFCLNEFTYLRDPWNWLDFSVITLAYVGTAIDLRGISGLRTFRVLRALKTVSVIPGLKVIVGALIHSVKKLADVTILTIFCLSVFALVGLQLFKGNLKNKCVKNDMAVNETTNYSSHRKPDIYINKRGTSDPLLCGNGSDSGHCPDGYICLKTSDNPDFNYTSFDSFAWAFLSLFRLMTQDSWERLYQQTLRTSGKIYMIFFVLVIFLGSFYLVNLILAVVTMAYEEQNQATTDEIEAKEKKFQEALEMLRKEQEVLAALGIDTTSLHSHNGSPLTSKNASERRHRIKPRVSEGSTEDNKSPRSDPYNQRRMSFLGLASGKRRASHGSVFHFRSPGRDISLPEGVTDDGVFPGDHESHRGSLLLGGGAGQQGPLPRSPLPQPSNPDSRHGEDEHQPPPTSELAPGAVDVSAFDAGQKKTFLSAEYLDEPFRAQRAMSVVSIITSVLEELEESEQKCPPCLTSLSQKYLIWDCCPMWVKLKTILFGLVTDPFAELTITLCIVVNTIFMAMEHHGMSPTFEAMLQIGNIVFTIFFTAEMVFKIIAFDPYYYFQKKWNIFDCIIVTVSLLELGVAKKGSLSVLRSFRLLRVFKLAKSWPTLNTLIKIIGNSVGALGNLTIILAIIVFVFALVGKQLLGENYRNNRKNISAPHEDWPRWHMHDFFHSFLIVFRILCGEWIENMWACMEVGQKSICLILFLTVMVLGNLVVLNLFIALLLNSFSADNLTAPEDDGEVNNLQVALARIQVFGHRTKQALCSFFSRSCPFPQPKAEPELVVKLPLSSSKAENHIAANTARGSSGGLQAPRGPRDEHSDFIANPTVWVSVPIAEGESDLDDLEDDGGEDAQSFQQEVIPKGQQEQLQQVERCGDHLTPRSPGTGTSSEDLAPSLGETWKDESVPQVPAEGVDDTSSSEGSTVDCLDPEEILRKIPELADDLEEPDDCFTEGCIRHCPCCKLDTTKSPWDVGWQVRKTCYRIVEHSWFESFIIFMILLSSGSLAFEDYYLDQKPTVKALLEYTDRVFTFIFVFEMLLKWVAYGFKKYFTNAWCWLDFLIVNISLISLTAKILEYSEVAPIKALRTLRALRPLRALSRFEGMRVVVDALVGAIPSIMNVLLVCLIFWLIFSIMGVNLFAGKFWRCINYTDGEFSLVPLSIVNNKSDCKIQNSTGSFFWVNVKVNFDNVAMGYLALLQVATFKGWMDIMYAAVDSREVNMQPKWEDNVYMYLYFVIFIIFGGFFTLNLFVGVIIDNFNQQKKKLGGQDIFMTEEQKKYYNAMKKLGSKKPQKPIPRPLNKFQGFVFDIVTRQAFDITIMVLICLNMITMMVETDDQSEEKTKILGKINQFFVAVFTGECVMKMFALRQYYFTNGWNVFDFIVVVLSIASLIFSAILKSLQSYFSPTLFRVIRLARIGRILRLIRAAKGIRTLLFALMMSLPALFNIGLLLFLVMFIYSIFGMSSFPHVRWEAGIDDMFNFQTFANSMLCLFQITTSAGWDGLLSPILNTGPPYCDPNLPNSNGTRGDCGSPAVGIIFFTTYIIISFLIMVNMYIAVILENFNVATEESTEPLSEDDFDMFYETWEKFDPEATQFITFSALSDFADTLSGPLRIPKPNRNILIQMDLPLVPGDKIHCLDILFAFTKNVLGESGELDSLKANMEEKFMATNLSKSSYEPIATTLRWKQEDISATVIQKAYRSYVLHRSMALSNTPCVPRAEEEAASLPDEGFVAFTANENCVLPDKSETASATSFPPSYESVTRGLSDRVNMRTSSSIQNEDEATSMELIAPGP
# Assay summary: Inhibition of Human NaV1.8 stably expressed in SH-SY-5Y cells (membrane potential dye fluorescence assay)
# Type: cell-based
# Assay setup: SH-SY-5Y cells stably expressing hNaV1.8; FLIPR membrane potential dye; 10 μM pyrethroid, 250 nM TTX; test range 100 μM-0.05 μM; read-out: hNav1.8 IC50
# Method: Inhibition of Human NaV1.8 stably expressed in SH-SY-5Y cells A SH-SY-5Y neuroblastoma cell line stably expressing the human NaV1.8 (hNaV1.8) ion channel was constructed. […] Cell plates are incubated for 30 minutes at room temperature to allow equilibration of dye and test compound. Plates are then transferred to a fluorescence plate reader for fluorescence measurement using an excitation wavelength of 530 nm whilst measuring fluorescence emission at 565 nm. […]
Where a name gives a salt, the structure may show the parent alone.
Outcome measure: log10 of IC50 (log10 of the value in µM)

| Compound | log10 of IC50 |
| --- | --- |
| CN(C1CN(C(=O)Nc2ccc(Oc3ccccc3)cc2)C1)C(C)(C)c1ccccc1 | -0.20 |
| CC(c1ccc(Oc2ccccc2)cc1)N(C)C1CN(C(=O)Nc2ccc(C(F)(F)F)cc2)C1 (centres unmarked) | 0.16 |
| CC(NC1CN(C(=O)Nc2ccc(Oc3ccccc3)cc2)C1)c1ccc(OC(F)(F)F)cc1 (centres unmarked) | 1.34 |
| O=C(Nc1ccc(Oc2ccc(F)cc2)cc1)N1CC(NC2CCc3cc(Cl)ccc32)C1 (centres unmarked) [Example 138, methanesulfonate salt] | -0.37 |
| CC(c1ccc(F)cc1)N(C)C1CN(C(=O)Nc2cccc(Oc3ccccc3)c2)C1 (centres unmarked) | -0.33 |
| O=C(Nc1ccc(C(F)(F)F)cc1)N1CC(NC2CCc3cc(F)ccc3C2)C1 (centres unmarked) | 0.12 |
| CC(NC1CN(C(=O)Nc2ccc(C(F)(F)F)cc2)C1)c1ccc(C#N)cc1 (centres unmarked) | 1.37 |
| CC(c1ccccc1Cl)N(C)C1CN(C(=O)Nc2cccc(C(F)(F)F)c2)C1 (centres unmarked) | 0.56 |
